Please respond with reported TGI for every item in the list.
- Tested on: NCI-H460 lung
- assayText: NCI tumour cell line growth inhibition, 48 h
Answers are plain numbers, in µM.

O=S1(=O)CCN(Cc2ccccc2)/C1=N\S(=O)(=O)c1ccc(Cl)cc1 :: 48

[ask] Look up and state reported TGI for "Cc1nc2cccc(NCc3ccc(C(=O)NO)cc3)c2c(=O)n1-c1ccccc1"
[reply] 10.5

* * *

- System: SR leukemia
- assayText: NCI tumour cell line growth inhibition, 48 h
reportedProperty: TGI

Below: 3 molecules and their reported TGI.
O=C1/C(=C\c2ccc(-c3ccc(Cl)cc3Cl)o2)SC2N=C(COc3ccc(Cl)cc3)NN12 (stereo not given) :: > 100 µM
O=[N+]([O-])c1cccc2nccc(NCC(O)CO)c12 (stereo not given) :: 28 µM
CS(=O)c1ccc(COP(N)(=O)N(CCCl)CCCl)cc1 (stereo not given) :: > 100 µM

For each entry beneath this line, provide reported TGI.
1. Cc1ccc2c(N)c(C(=O)N[C@H]3CCc4cc(N5CC6CCC(C5)N6)ccc4C3)sc2n1
2. O=C(O)CN1CCN(CC(=O)O)CCN(CC(=O)O)CCN(CC(=O)O)CC1
3. COc1ccc(-c2nc(-c3cn(C)c4ncccc34)cs2)cc1
4. O=C1CCCC2=C1CC1=C(CCCC1=O)N2c1cccc2ccccc12
5. CCOC(=O)C(=O)Nc1c(N(CC)CC)n2ccccc2nc1=O

[reply]
1: 4.36 µM; 2: > 100 µM; 3: > 100 µM; 4: > 100 µM; 5: > 100 µM

Hey, can you go through the list below and give me TGI for every item?
1. CCN(CC)CCOc1ccc(/C=C2\CC3C4CC=C5C[C@@H](N6CCCC6)CC[C@]5(C)C4CC[C@]3(C)[C@H]2O)cc1OC (stereo not given in full)
2. O=S(=O)(c1ccc(I)cc1)N(c1ccccc1)S(=O)(=O)C(F)(F)C(F)(F)C(F)(F)C(F)(F)F
3. [N-]=[N+]=Nc1ccc2c(c1)Sc1ccccc1N2CCCCCl
4. CC(=O)OC(C)(C)/C=C/C(=O)[C@](C)(O)[C@H]1[C@H](O)C[C@@]2(C)[C@@H]3CC=C4[C@@H](C[C@H](O)C(=O)C4(C)C)[C@]3(C)C(=O)C[C@]12C

[reply]
1. 0.648 µM
2. > 100 µM
3. > 100 µM
4. 1.21 µM

State the recorded TGI for every item in the following list.
1. CN(c1ccccc1)C(c1ccccc1)C(O)c1ccccc1 (stereo not given)
2. c1ccc2sc(C3(N4CCCCC4)CCCC3)cc2c1
3. CCOC(=O)c1ccc(C(=O)/C(C#N)=C2\CCCN2)[nH]1
4. OC1CC(O)c2c(Cl)sc(Cl)c21 (stereo not given)
5. CCOC(=O)c1nc2ccc(C(F)(F)F)cc2nc1Oc1ccc(F)cc1
6. COc1cc(-c2coc3c(OC)c(OC4OC(CO)C(O)C(O)C4O)c(OC)cc3c2=O)cc(OC)c1C (stereo not given)
7. C[C@]12CC[C@@H]3c4ccc(O)cc4CC[C@H]3[C@@H]1CC[C@@H]2NS(=O)(=O)Cc1ccc(Cl)cc1

[reply]
["49.8 µM", "22.3 µM", "84.5 µM", "> 100 µM", "> 100 µM", "> 100 µM", "> 100 µM"]

Respectfully, I request TGI for each entry included below.
1. CCOC(=O)Oc1c(OC)cc(C(=O)O[C@@H]2C[C@@H]3CN4CCc5c([nH]c6cc(OC)ccc56)[C@H]4C[C@@H]3[C@H](C(=O)OC)[C@H]2OC)cc1OC
2. CCN(CC)CCCCCCCNc1c2ccc(Cl)cc2nc2ccc(OC)cc12

[reply]
1. > 100 µM
2. 0.634 µM

Dear reader, for each entry below, please note its TGI.
1. CN(C)c1ccc2c3c(c(=O)oc2c1)CCC3
2. CCOC(=O)c1ccc(N2C(=O)/C(=C\OC)c3ccccc3C2=O)cc1
3. CN(C)CCCNC(=O)c1cc(NC(=O)c2cc(NC(=O)c3cc(NC(=O)CCc4c[nH]c5ccccc45)cn3C)cn2C)cn1C

[reply]
1. > 100 µM
2. > 100 µM
3. > 100 µM

Each of the following entries comes with a recorded value; kindly state TGI for each.
1. CCN(CC)Cc1cc(Nc2c3ccccc3nc3c2[nH]c2ccccc23)ccc1O
2. O=C1CCCc2cc3c(cc21)CCC3C(=O)O (stereo not given)
3. O=C(NC(=S)Nc1ccc(Cl)cc1)c1ccccc1
4. O=C1OC(=O)C2C1C1(c3ccccc3)C(c3ccccc3)=C(c3ccccc3)C2(c2ccccc2)S1=O (stereo not given)
5. O=S1(=O)C[C@@H](O)[C@H](O)CS1
6. Cc1nc2cccc(NCc3ccc(C(=O)NO)cc3)c2c(=O)n1-c1ccccc1
7. O=S1(=O)CCN(Cc2ccccc2)/C1=N\S(=O)(=O)c1ccc(Cl)cc1

[reply]
["1.01 µM", "> 100 µM", "> 100 µM", "> 100 µM", "> 100 µM", "> 100 µM", "59.9 µM"]

Provide TGI for all items below, preserving their order.
1. O=C(/C=C/c1ccc(O)cc1)NCCc1ccc(O)cc1
2. COC(=O)CC1C(=O)OCc2c1cc1n(c2=O)Cc2c-1nc1ccccc1c2OC (stereo not given)

[reply]
1: > 12.5 µM; 2: 40.8 µM

Count: 4. Required value per item: TGI.
1. CCC(=O)COc1ccc(NC(NC(=O)C(C(F)(F)F)C(F)(F)F)(C(F)(F)F)C(F)(F)F)cc1
2. Cc1[nH]c(/C=C2\C(=O)Nc3ccc(F)cc32)c(C)c1C(=O)NC[C@H](O)CN1CCOCC1
3. CC[N+](CC)(CC)CCCn1c2c(c3ccccc3c1=O)C(=O)c1ccccc1-2
4. O=C(Nc1nc(C23CC4CC(CC(C4)C2)C3)cs1)c1cc2cc(Br)cc(Br)c2oc1=O

[reply]
1. 37.1 µM
2. > 10 µM
3. > 100 µM
4. > 100 µM

* * *

- Test system: SK-OV-3 ovarian
- assayText: NCI tumour cell line growth inhibition, 48 h; in the data active means GI50 below about 0.43 µM; inactive means the rest
Field 'call' accepts active, inactive

// known answers, use as guide
O=C1OC(=O)C2C1C1(c3ccccc3)C(c3ccccc3)=C(c3ccccc3)C2(c2ccccc2)S1=O (configuration not stated) :: inactive
C=C(CN1CCc2ccccc2C1)c1ccc(C(=O)Nc2ccc(N)cc2)cc1 :: inactive
COc1ccc(-c2nc(-c3cn(C)c4ncccc34)cs2)cc1 :: inactive
O=C(Nc1ncc(Cc2ccccc2Cl)s1)c1ccc2c(c1)OCCO2 :: inactive
COc1ccc(-c2nc(-c3ccccc3)c(-c3ccccc3)n2C2CC2)cc1OC1CCCC1 :: inactive
CCOC(=O)Oc1c(OC)cc(C(=O)O[C@@H]2C[C@@H]3CN4CCc5c([nH]c6cc(OC)ccc56)[C@H]4C[C@@H]3[C@H](C(=O)OC)[C@H]2OC)cc1OC :: inactive
CC[N+](CC)(CC)CCCn1c2c(c3ccccc3c1=O)C(=O)c1ccccc1-2 :: inactive
Cc1nc2cccc(NCc3ccc(C(=O)NO)cc3)c2c(=O)n1-c1ccccc1 :: inactive

[ask] Each compound tested received a call. Report the one for "C/C=C(\C)C(=O)O[C@H]1C=CC(=O)O[C@H]1CNC(=O)[C@H](C)O" .
[reply] inactive

[ask] Identify the outcome logged in this assay for the compound shown: C[C@H]1CCC/C=C/[C@@H]2C[C@H](O)C[C@H]2[C@H](O)[C@@H](S(=O)CCN(C)C)CC(=O)O1 (some centres not stated)
[reply] active

[ask] Recorded test outcome, item "CN(C)CCCNC(=O)c1cc(NC(=O)c2cc(NC(=O)c3cc(NC(=O)CCc4c[nH]c5ccccc45)cn3C)cn2C)cn1C"
[reply] inactive

[ask] Please let me know the test result on file for "Cc1cc2c(F)c(Oc3ncnn4cc(OC[C@@H](C)OC(=O)[C@H](C)N)c(C)c34)ccc2[nH]1" .
[reply] inactive

[ask] Fill in: this test's call for "Nc1ccccc1C#C/C=C\C#Cc1ccc(Cl)cc1Cl" is ___
[reply] inactive

[ask] // return assay outcome for "COC(=O)/C(=C\c1c(C)[nH]c2ccccc12)S(=O)(=O)c1ccccc1"
[reply] inactive

[ask] Given "O=C1c2ccccc2-c2c1c1ccccc1c(=O)n2CCCN1CCOCC1" , state the outcome it received in this test.
[reply] inactive

[ask] Recorded test outcome, item "O=C1C=Cc2ccccc2/C1=C/c1[nH]c(=O)[nH]c1O"
[reply] inactive

[ask] For this compound, state the assay outcome: "OCCCCC#Cc1ccccc1C#Cc1ccccc1C(F)(F)F"
[reply] inactive

* * *

- Tested on: A498 renal
- assayText: NCI tumour cell line growth inhibition, 48 h
Give TGI for every item shown.
Numbers only, in µM.

Some compounds with recorded TGI:
O=[N+]([O-])C(=C(N1CCOCC1)N1CCOCC1)/C(Cl)=C(\Cl)[N+](=O)[O-] :: 36.1
COc1ccc(/C=C\c2cc(OC)c(OC)c(OC)c2)cc1OCC(=O)Nc1nc2ccc(C(F)(F)F)cc2s1 :: 18.6

Continue with the next compound.
[ask] Provide one value: measured TGI of C=C1C(=O)OC2C1C(OC(=O)/C(C)=C/C)CC1(C)C(=O)CCC(=C)C21 (stereo not given)
[reply] 34
